TESTED_ON: NS3 (Hepatitis C virus)
Sequence (A3EZJ3 whole entry): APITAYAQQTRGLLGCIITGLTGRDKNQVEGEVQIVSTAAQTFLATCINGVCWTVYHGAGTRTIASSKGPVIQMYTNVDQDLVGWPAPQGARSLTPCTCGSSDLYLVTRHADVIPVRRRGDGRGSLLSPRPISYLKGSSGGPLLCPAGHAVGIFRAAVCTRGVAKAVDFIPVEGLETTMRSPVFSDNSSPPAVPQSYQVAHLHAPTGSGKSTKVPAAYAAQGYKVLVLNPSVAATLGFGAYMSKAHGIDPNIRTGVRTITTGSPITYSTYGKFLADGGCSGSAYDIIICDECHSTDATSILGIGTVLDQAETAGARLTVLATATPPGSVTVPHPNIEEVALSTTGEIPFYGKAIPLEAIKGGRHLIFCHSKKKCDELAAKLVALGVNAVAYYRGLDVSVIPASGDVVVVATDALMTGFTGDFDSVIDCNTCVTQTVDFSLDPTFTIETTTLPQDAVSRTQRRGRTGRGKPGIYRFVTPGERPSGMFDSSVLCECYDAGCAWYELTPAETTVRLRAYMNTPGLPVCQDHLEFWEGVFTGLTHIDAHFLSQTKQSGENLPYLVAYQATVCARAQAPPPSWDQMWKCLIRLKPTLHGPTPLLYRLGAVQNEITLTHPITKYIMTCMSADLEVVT
Numbered stars: 1 amine (or outer) side, 2 acyl side, 3 side chain; on linkers, the order of the positions; unused ones are H or OH. Square brackets hold non-standard residues; d marks the D form. Peptide text beside a SMILES is read from it. * marks the point of attachment. 2Nal = N[C@@H](Cc1ccc2ccccc2c1)C(=O)O; Isobutyloxycarbonyl = CC(C)COC(=O)*; X1 = CCCC(N[*:1])C(=O)C(=O)[*:2]; Chg = N[C@H](C(=O)O)C1CCCCC1; Phg = N[C@H](C(=O)O)c1ccccc1
READOUT_KIND: log10(Ki) (log10 of the value in µM)

# COMPOUND, MEAS_VALUE
data = [
    ("CCCC(NC(=O)[C@@H]1CCCN1C(=O)[C@@H](NC(=O)OCC(C)C)C(C)C)C(=O)C(=O)NCC(=O)N[C@H](C(=O)OC)[C@@H](C)CC (stereo partly specified) (Isobutyloxycarbonyl-VP[X1]GI-OMe)", 1.18),
    ("CCCC(NC(=O)[C@@H]1CCCN1C(=O)[C@@H](NC(=O)OC(C)(C)C)C1CCCCC1)C(=O)C(=O)NCC(=O)NCc1ccccc1 (stereo partly specified)", 1.65),
    ("CCCC(NC(=O)[C@@H]1CCCN1C(=O)[C@@H](NC(=O)OCC(C)C)C(C)C)C(=O)C(=O)NCC(=O)N[C@@H](CC(C)C)C(N)=O (stereo partly specified) (Isobutyloxycarbonyl-VP[X1]GL-NH2)", 1.20),
    ("CCCC(NC(=O)[C@@H]1CCCN1C(=O)[C@@H](NC(=O)OCC(C)C)C1CCCCC1)C(=O)C(=O)NCC(=O)N[C@H](C(N)=O)c1ccccc1 (stereo partly specified) (Isobutyloxycarbonyl-[Chg]P[X1]G[Phg]-NH2)", -0.44),
    ("CCCC(NC(=O)[C@@H]1CCCN1C(=O)[C@@H](NC(=O)OCC(C)C)C(C)C)C(=O)C(=O)NCC(=O)N[C@H](C(N)=O)c1ccccc1 (stereo partly specified) (Isobutyloxycarbonyl-VP[X1]G[Phg]-NH2)", 0.32),
    ("CCCC(NC(=O)[C@@H]1CCCN1C(=O)[C@@H](NC(=O)OCC(C)C)C(C)C)C(=O)C(=O)NCC(=O)N[C@@H](Cc1ccc2ccccc2c1)C(N)=O (stereo partly specified) (Isobutyloxycarbonyl-VP[X1]G[2Nal]-NH2)", 1.08),
]

* * *

What follows is a collection of pKi values obtained with NS3 (Hepatitis C virus).
pKi: −log10 of the molar value. Numbered stars: 1 amine (or outer) side, 2 acyl side, 3 side chain; on linkers, the order of the positions; unused ones are H or OH. Square brackets hold non-standard residues; d marks the D form. Peptide text beside a SMILES is read from it. * marks the point of attachment. Isobutyloxycarbonyl = CC(C)COC(=O)*; X1 = CCCC(N[*:1])C(=O)C(=O)[*:2]; Chg = N[C@H](C(=O)O)C1CCCCC1; Phg = N[C@H](C(=O)O)c1ccccc1; Boc = CC(C)(C)OC(=O)*; OBn = c1ccc(CO*)cc1; OtBu = CC(C)(C)O*

# COMPOUND, MEASUREMENT_QUALIFIER, pKi
records = [
    ("CCCC(NC(=O)[C@@H]1CCCN1C(=O)[C@@H](NC(=O)OCC(C)C)C(C)C)C(=O)C(=O)NCC(=O)N[C@@H](CC(=O)O)C(=O)O (some centres undefined) (Isobutyloxycarbonyl-VP[X1]GD-OH)", "<", 4.00),
    ("CCCC(NC(=O)[C@H](CC(C)C)NC(=O)[C@@H](NC(=O)OCC(C)C)C1CCCCC1)C(=O)C(=O)NCC(=O)N[C@@H](CC(=O)O)C(N)=O (some centres undefined) (Isobutyloxycarbonyl-[Chg]L[X1]GD-NH2)", "=", 5.08),
    ("CCCC(NC(=O)[C@H](CC(C)C)NC(=O)[C@@H](NC(=O)OC(C)(C)C)C1CCCCC1)C(=O)C(=O)NCC(=O)N[C@H](C(=O)OCc1ccccc1)c1ccccc1 (some centres undefined) (Boc-[Chg]L[X1]G[Phg]-OBn)", "=", 6.22),
    ("CCCC(NC(=O)[C@H](CC(C)C)NC(=O)[C@@H](NC(=O)OCC(C)C)C1CCCCC1)C(=O)C(=O)NCC(=O)N[C@H](C(=O)OC(C)(C)C)c1ccccc1 (some centres undefined) (Isobutyloxycarbonyl-[Chg]L[X1]G[Phg]-OtBu)", "=", 6.19),
]
